In this section, each of the compounds is paired with its reported EC50.
Biological target: THR beta-LBD (Homo sapiens, UniProt P10828)
Construct: THR beta-LBD (the final concentration is 0.5 nM) was added to the 384-well assay plate; purchased Invitrogen PV4686
Experiment: THR-β Coactivator Peptide Recruitment Assay (LanthaScreen TR-FRET)
Type: biochemical
Details: TR-FRET coactivator recruitment, THR beta-LBD 0.5 nM; read-out: THRβ EC50
Procedure: A time-resolved FRET (TR-FRET) assay was used to test representative compounds of the application. THR-β Coactivator Peptide Recruitment Assay were conducted by using Invitrogen's LanthaScreen™ TR-FRET Thyroid Receptor beta Assay Kit (Catalog no. PV4686). […] After a gentle mix and incubation at room temperature for 2 h, the signal was read on the EnVision Multilabel Plate Reader at wavelengths of 520 nm and 495 nm. […]

COMPOUND	TARGET_OF_ASSAY	EC50
CS(=O)(=O)[C@H]1C[C@H](NS(=O)(=O)c2cc(Oc3c(Cl)cc(-n4nc(C(F)F)c(=O)[nH]c4=O)cc3Cl)ccc2O)C1 [Compound 82]	THR beta-LBD (Homo sapiens, UniProt P10828)	20 to 100 nM
O=c1[nH]c(=O)n(-c2cc(Cl)c(Oc3ccc(O)c(S(=O)(=O)N[C@@H]4CCOC4)c3)c(Cl)c2)nc1C(F)F [Compound 30]	THR beta-LBD (Homo sapiens, UniProt P10828)	< 2 nM
O=c1cnn(-c2cc(Cl)c(Oc3cc(S(=O)(=O)N[C@H]4C[C@H](O)C4)c(O)cn3)c(Cl)c2)c(=O)[nH]1 [Compound 165]	THR beta-LBD (Homo sapiens, UniProt P10828)	20 to 100 nM
O=c1[nH]c(=O)n(-c2cc(Cl)c(Oc3ccc(O)c(S(=O)(=O)N[C@@H]4CCN(S(=O)(=O)C5CC5)C4)c3)c(Cl)c2)nc1C(F)F [Compound 48]	THR beta-LBD (Homo sapiens, UniProt P10828)	2 to 20 nM
Cc1nn(-c2cc(Cl)c(Oc3cc(S(=O)(=O)N[C@H]4CCOC4)c(O)cn3)c(Cl)c2)c(=O)[nH]c1=O [Compound 164]	THR beta-LBD (Homo sapiens, UniProt P10828)	20 to 100 nM
CC(C)NS(=O)(=O)c1cc(Oc2c(Cl)cc(-n3nc(C(F)F)c(=O)[nH]c3=O)cc2Cl)ncc1O [Compound 110]	THR beta-LBD (Homo sapiens, UniProt P10828)	< 2 nM
O=C(NCC(F)F)C1(NS(=O)(=O)c2cc(Oc3c(Cl)cc(-n4nc(C(F)F)c(=O)[nH]c4=O)cc3Cl)ccc2O)CC1 [Compound 87]	THR beta-LBD (Homo sapiens, UniProt P10828)	< 2 nM
O=c1[nH]c(=O)n(-c2cc(Cl)c(Cc3ccc(O)c(S(=O)(=O)N[C@H]4C[C@H](O)C4)c3)c(Cl)c2)nc1C(F)F [Compound 97]	THR beta-LBD (Homo sapiens, UniProt P10828)	< 2 nM
O=C(CNS(=O)(=O)c1cc(Oc2c(Cl)cc(-n3nc(C(F)F)c(=O)[nH]c3=O)cc2Cl)ccc1O)NC1CC1 [Compound 59]	THR beta-LBD (Homo sapiens, UniProt P10828)	2 to 20 nM
O=C(NCC1(NS(=O)(=O)c2cc(Oc3c(Cl)cc(-n4nc(C(F)F)c(=O)[nH]c4=O)cc3Cl)ncc2O)CC1)C1CC1 [Compound 101]	THR beta-LBD (Homo sapiens, UniProt P10828)	2 to 20 nM
O=c1[nH]c(=O)n(-c2cc(Cl)c(Oc3ccc(O)c(S(=O)(=O)NC4CC4)c3)c(Cl)c2)nc1C(F)F [Compound 14]	THR beta-LBD (Homo sapiens, UniProt P10828)	< 2 nM
CC(C)(C)NC(=O)c1cc(Oc2c(Cl)cc(-n3nc(C(F)(F)F)c(=O)[nH]c3=O)cc2Cl)ccc1O [Compound 4]	THR beta-LBD (Homo sapiens, UniProt P10828)	20 to 100 nM
CC1(C)CC(NS(=O)(=O)c2cc(Oc3c(Cl)cc(-n4nc(C(F)F)c(=O)[nH]c4=O)cc3Cl)ncc2O)C1 [Compound 122]	THR beta-LBD (Homo sapiens, UniProt P10828)	2 to 20 nM
O=C(N1CCCC1)C1(NS(=O)(=O)c2cc(Oc3c(Cl)cc(-n4nc(C(F)F)c(=O)[nH]c4=O)cc3Cl)ccc2O)CC1 [Compound 91]	THR beta-LBD (Homo sapiens, UniProt P10828)	2 to 20 nM
O=C(NCC(F)F)C1(NS(=O)(=O)c2cc(Oc3c(Cl)cc(-n4nc(C(F)F)c(=O)[nH]c4=O)cc3Cl)ncc2O)CC1 [Compound 117]	THR beta-LBD (Homo sapiens, UniProt P10828)	20 to 100 nM
C[C@@H](CO)NS(=O)(=O)c1cc(Oc2c(Cl)cc(-n3nc(C(F)F)c(=O)[nH]c3=O)cc2Cl)ccc1O [Compound 41]	THR beta-LBD (Homo sapiens, UniProt P10828)	< 2 nM
O=c1[nH]c(=O)n(-c2cc(Cl)c(Oc3ccc(O)c(S(=O)(=O)N4CCNCC4)c3)c(Cl)c2)nc1C(F)F [Compound 31]	THR beta-LBD (Homo sapiens, UniProt P10828)	2 to 20 nM
COCCNS(=O)(=O)c1cc(Oc2c(Cl)cc(-n3nc(C(F)F)c(=O)[nH]c3=O)cc2Cl)ccc1O [Compound 65]	THR beta-LBD (Homo sapiens, UniProt P10828)	< 2 nM
O=c1[nH]c(=O)n(-c2cc(Cl)c(Oc3ccc(O)c(S(=O)(=O)[C@H]4C[C@@H](O)C4)c3)c(Cl)c2)nc1C(F)F [Compound 100]	THR beta-LBD (Homo sapiens, UniProt P10828)	< 2 nM

----------
Target: THR alpha-LBD (Homo sapiens)
Construct: except that THR alpha-LBD of a final concentration 0.25 nM was used; purchased Invitrogen PV4687
Sequence (P10827 163-410 isoform P10827-2 limits assumed, other chains not shown): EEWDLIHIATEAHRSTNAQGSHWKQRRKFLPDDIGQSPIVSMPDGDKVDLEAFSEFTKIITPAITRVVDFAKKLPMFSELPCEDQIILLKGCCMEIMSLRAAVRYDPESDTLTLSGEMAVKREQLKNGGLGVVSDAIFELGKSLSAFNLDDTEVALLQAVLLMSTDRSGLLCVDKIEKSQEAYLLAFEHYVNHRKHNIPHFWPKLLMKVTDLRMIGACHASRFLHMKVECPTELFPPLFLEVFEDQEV
Assay: THR-α Coactivator Peptide Recruitment Assay (LanthaScreen TR-FRET)
Assay type: biochemical
Conditions: TR-FRET coactivator recruitment, THR alpha-LBD 0.25 nM
Description: A time-resolved FRET (TR-FRET) assay was used to test representative compounds of the application. THR-β Coactivator Peptide Recruitment Assay were conducted by using Invitrogen's LanthaScreen™ TR-FRET Thyroid Receptor beta Assay Kit (Catalog no. PV4686). […] After a gentle mix and incubation at room temperature for 2 h, the signal was read on the EnVision Multilabel Plate Reader at wavelengths of 520 nm and 495 nm. […]
MEASURED_ATTRIBUTE: THRα Emax

MOLECULE	TARGET_OF_ASSAY	MEASURED_ATTRIBUTE	RECORDED_RESULT
CN1CC(NS(=O)(=O)c2cc(Oc3c(Cl)cc(-n4nc(C(F)F)c(=O)[nH]c4=O)cc3Cl)ncc2O)C1 [Compound 169]	THR alpha-LBD (Homo sapiens)	THRα Emax	C (<40)
O=c1[nH]c(=O)n(-c2cc(Cl)c(Oc3cc(S(=O)(=O)N[C@H]4CCOC4)c(O)cn3)c(Cl)c2)nc1C(F)F [Compound 104]	THR alpha-LBD (Homo sapiens)	THRα Emax	B (40~85)
CC(C)NS(=O)(=O)c1cc(Oc2c(Cl)cc(-n3nc(C(F)F)c(=O)[nH]c3=O)cc2Cl)ncc1O [Compound 110]	THR alpha-LBD (Homo sapiens)	THRα Emax	A (85~110)
O=C(NC1CCC1)c1cc(Oc2c(Cl)cc(-n3nc(C(F)F)c(=O)[nH]c3=O)cc2Cl)c(F)cc1O [Compound 11]	THR alpha-LBD (Homo sapiens)	THRα Emax	B (40~85)
CN(C)C(=O)N1CC(NS(=O)(=O)c2cc(Oc3c(Cl)cc(-n4nc(C(F)F)c(=O)[nH]c4=O)cc3Cl)ccc2O)C1 [Compound 53]	THR alpha-LBD (Homo sapiens)	THRα Emax	B (40~85)
O=c1[nH]c(=O)n(-c2cc(Cl)c(Oc3cnc(O)c(S(=O)(=O)NC4CCC4)c3)c(Cl)c2)nc1C(F)F [Compound 64]	THR alpha-LBD (Homo sapiens)	THRα Emax	C (<40)
N#CC1CC(N[S@SP3](=O)(=O)c2cc(Oc3c(Cl)cc(-n4nc(C(F)F)c(=O)[nH]c4=O)cc3Cl)ccc2O)C1 (centres unmarked) [Compound 26]	THR alpha-LBD (Homo sapiens)	THRα Emax	A (85~110)
CNC(=O)C1(NS(=O)(=O)c2cc(Oc3c(Cl)cc(-n4nc(C(F)F)c(=O)[nH]c4=O)cc3Cl)ccc2O)CC1 [Compound 22]	THR alpha-LBD (Homo sapiens)	THRα Emax	B (40~85)

----------
Target: THR beta-LBD (Homo sapiens, UniProt P10828)
Construct: THR beta-LBD (the final concentration is 0.5 nM) was added to the 384-well assay plate; purchased Invitrogen PV4686
Sequence (P10828 217-461 limits assumed): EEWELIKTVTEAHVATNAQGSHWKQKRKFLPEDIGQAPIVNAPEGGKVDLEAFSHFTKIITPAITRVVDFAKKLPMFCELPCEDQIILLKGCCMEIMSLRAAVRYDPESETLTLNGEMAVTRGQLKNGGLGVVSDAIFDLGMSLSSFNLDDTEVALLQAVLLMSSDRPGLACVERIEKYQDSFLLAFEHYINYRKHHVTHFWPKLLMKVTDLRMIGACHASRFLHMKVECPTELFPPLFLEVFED
Assay: THR-β Coactivator Peptide Recruitment Assay (LanthaScreen TR-FRET)
Type: biochemical
Settings: TR-FRET coactivator recruitment, THR beta-LBD 0.5 nM
Protocol: A time-resolved FRET (TR-FRET) assay was used to test representative compounds of the application. THR-β Coactivator Peptide Recruitment Assay were conducted by using Invitrogen's LanthaScreen™ TR-FRET Thyroid Receptor beta Assay Kit (Catalog no. PV4686). […] After a gentle mix and incubation at room temperature for 2 h, the signal was read on the EnVision Multilabel Plate Reader at wavelengths of 520 nm and 495 nm. […]

COMPOUND	THRβ Emax
N#C[C@H]1C[C@H](NS(=O)(=O)c2cc(Oc3c(Cl)cc(-n4nc(C(F)F)c(=O)[nH]c4=O)cc3Cl)ncc2O)C1 [Compound 130]	B (75~90)
CNC(=O)CNS(=O)(=O)c1cc(Oc2c(Cl)cc(-n3nc(C(F)F)c(=O)[nH]c3=O)cc2Cl)ccc1O [Compound 60]	B (75~90)
CO[C@H]1C[C@H](NS(=O)(=O)c2cc(Oc3c(Cl)cc(-n4nc(C(F)F)c(=O)[nH]c4=O)cc3Cl)ncc2O)C1 [Compound 139]	B (75~90)
